assay: Drug degradation assessed as pepsin (unknown origin)-mediated compound hydrolysis by measuring remaining compound levels at 8 hrs by RP-HPLC method; assay type: ADME; conditions: human, read-out: Stability
Catalogue of molecules with associated remaining at 8 h
Numbers only here, please. The scale is %.

sample_smiles=CC(=O)N[C@@H](Cc1ccccc1)C(=O)NCC(=O)N[C@H]1C[C@@H](C(=O)N[C@@H](CCCCN)C(=O)N[C@@H](CCCCN)C(=O)N[C@@H](CCCNC(=N)N)C(=O)N[C@H]2C[C@@H](C(=O)N[C@@H](CCC(N)=O)C(=O)N[C@H]3C[C@@H](C(=O)N[C@@H](CCCNC(=N)N)C(=O)N[C@H]4C[C@@H](C(=O)NCCC(N)=O)N(CCCNC(=N)N)C4)N(CCCNC(=N)N)C3)N(CCCNC(=N)N)C2)N(CCCNC(=N)N)C1 reported_property="remaining at 8 h" unit_spec=% assay_value=100

Query molecule follows.
Look up and report measured remaining at 8 h for this entry: "CC(=O)N[C@@H](Cc1ccccc1)C(=O)NCC(=O)N[C@@H](CCCNC(=N)N)C(=O)N[C@@H](CCCCN)C(=O)N[C@@H](CCCCN)C(=O)N[C@@H](CCCNC(=N)N)C(=O)N[C@@H](CCCNC(=N)N)C(=O)N[C@@H](CCC(N)=O)C(=O)N[C@@H](CCCNC(=N)N)C(=O)N[C@@H](CCCNC(=N)N)C(=O)N[C@@H](CCCNC(=N)N)C(N)=O"
90.6
